Assignment: determine reported growth for the given compounds.
System: OVCAR-4 ovarian
test_method_notes: NCI-60 one-dose screen, 48 h (100 = growth as untreated, 0 = no growth, -100 = all killed)
test_settings: 10 µM unless noted
This is part of a sample that, as a whole, favours compounds with a hit. Of some 83,000 tested, about 20% had one in any assay. Activity calls are given as the source filed them. The calls were made as follows: active = growth percent below 10; inactive = the rest.

Here are 5 compounds. What values of growth were reported for them?
1. COc1cccc(C(=O)O)c1OC
2. CCOC(=O)c1ccc(Nc2sc(C(=O)c3ccc(Br)cc3)c(N)c2C#N)cc1
3. CC(C)c1ncc([N+](=O)[O-])n1C
4. Nc1ccc(F)cc1F
5. O=C(Nc1ccc([N+](=O)[O-])cc1)C(=O)Nc1ccc([N+](=O)[O-])cc1

Result block:
1. 95% (inactive)
2. 70.5% (inactive)
3. 117% (inactive)
4. 123% (inactive)
5. 121% (inactive)
